B1: ZNF263 (parent)
chain: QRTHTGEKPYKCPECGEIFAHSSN

Variants of: B1
Experiment: protein stability index of a GFP-peptide fusion (GPS, HEK-293T) (PSI 1-6); higher = more stable;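 further: lentivirally expressed fusions sorted by FACS into six bins by GFP to DsRed ratio, PSI derived from sequencing read proportions per bin multiplied by bin number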
Details: c terminus: a fixed tail appended
Reported values of protein stability index for individual entries
readout type: protein stability index

[[record]]
variant_string = "C12G"
readout_type = "protein stability index"
readout_number = 3.98

[[record]]
variant_string = "Y10K"
readout_type = "protein stability index"
readout_number = 3.93

[[record]]
variant_string = "G16P"
readout_type = "protein stability index"
readout_number = 4.06

